FYI, the data here is from patent US7230002B2.

# assay system: human recombinant Dipeptidyl peptidase IV enzyme (Homo sapiens, UniProt P27487)
# Sequence (P27487 whole entry): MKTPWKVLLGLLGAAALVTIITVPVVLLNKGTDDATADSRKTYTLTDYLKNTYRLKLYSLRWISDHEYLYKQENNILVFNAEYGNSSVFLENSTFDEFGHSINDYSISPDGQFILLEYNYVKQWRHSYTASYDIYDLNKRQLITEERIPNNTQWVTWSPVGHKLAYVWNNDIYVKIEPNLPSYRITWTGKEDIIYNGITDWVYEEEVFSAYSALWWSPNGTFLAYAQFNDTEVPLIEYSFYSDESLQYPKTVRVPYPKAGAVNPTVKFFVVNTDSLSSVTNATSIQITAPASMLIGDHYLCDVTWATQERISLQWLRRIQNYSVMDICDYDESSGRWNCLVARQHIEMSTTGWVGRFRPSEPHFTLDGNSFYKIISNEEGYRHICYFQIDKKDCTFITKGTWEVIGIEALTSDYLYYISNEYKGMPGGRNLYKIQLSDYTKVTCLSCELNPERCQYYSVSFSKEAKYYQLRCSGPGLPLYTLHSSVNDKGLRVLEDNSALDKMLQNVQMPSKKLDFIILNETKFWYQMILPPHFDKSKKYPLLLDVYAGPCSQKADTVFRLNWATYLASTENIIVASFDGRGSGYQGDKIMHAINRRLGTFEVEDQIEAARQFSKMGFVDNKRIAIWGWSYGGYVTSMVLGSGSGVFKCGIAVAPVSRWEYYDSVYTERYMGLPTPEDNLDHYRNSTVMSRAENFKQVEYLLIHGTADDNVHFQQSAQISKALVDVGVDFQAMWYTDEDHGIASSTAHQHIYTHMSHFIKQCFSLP
# assay explanation: In-vitro DPP-IV assay (cleavage of Gly-Pro-AMC)
# experimental context: n = 3, substrate Gly-Pro-AMC, 30° C., 30 minutes, read-out: DPP-IV inhibition IC50
Counter-ions that a name gives are not always drawn.
Answer each item with its documented IC50.
Answers are plain numbers, in µM.

Consider the following illustrative entries.
N#Cc1ccc(OC[C@H]2CC[C@@H](NCC(=O)N3CCC[C@H]3C#N)C2)cc1 [Example-47] ... 0.0138
N#C[C@@H]1CCCN1C(=O)CNC1CCC(CNc2ncccn2)C1 (mixture of isomers) [Example-19, dihydrochloride] ... 0.02
N#C[C@@H]1CCCN1C(=O)CN[C@H]1CC[C@@H](CS(=O)(=O)c2ccccn2)C1 ... 0.066

# next compound below
QUERY: Endpoint output: IC50 of N#Cc1ccc(SCC2CCC(NCC(=O)N3CCC[C@H]3C#N)C2)nc1 (mixture of isomers) [Example-39] . Value?
RESULT: 0.0111
